# Test system: ragweed (common ragweed, Ambrosia artemisiifolia)
# protocol.text: Test A postemergence, ragweed
# Type: in vivo
# recorded.conditions: Ambrosia artemisiifolia, post-emergence, 240 h; 31 g ai/ha, postemergence; 0 to 100 scale (0 no effect, 100 complete control), 10 days; read-out: Plant response rating, Ragweed
readout.name: pest or weed control at 31 g/ha
Mention the unit after the number when you answer.

# count of solved cases: 3
• CC(=O)OCOc1c(Cl)nn(C)c(=O)c1-c1c(C)sc2cccc(Cl)c12 = 70%
• CC(=O)OCOc1c(Cl)nn(C)c(=O)c1-c1c2ccccc2cc2ccccc12 = 100%
• CC(=O)OCOc1c(C)nn(C)c(=O)c1-c1c(Br)sc2ccc(F)cc12 = 70%

Next up:
Could you share which pest or weed control at 31 g/ha value was measured for COC(=O)OCOc1c(Cl)nn(C)c(=O)c1-c1c2cc(C)ccc2cc2ccc(C)cc12 ?
100%
